experimental details: soluble on expression in E. coli; label from the status in PepcDB or PDB records

{"columns": ["sequence string", "soluble on expression in E. coli"],
 "data": [
  ["MAHHHHHHMGTLEAQTQGPGSMLEKKTFKSSHTNAFHDFQARVYVADTDFSGVVYHARYLEFFERGRSEFLRDTGFNNTLLASGVEGEKLFFVVRHMEINFSRPAQIDNLLTIKTRISRLQGARFFMEQYILHGESMLVTAKVEIALINEEGKPRRLPKELFSTIVV", "soluble"],
  ["VTVSTSTARSADDSDHSSEVARPTDSRRDPEVLREALQRWLAAQLPPDAAPEVTHVHLPDANGMSSETILFDATWSGEVHPLVARVAPADTTMPVFPEYDLDGQFQVMAQVREHSAVPVPVVYWSESDPGPLGAPFFVMARVSGQVPPDVMPYNFGSWVTEATEEQRALLQHSAVNVLAQLHDIDRPWERFAFLQLPGSGPTVTEALAAHIRQQRDYYEWTTLSGPRSPLIERGFAWMEDNLPDDPSPAVFCWGDARIGNMMFEDFRPVAVLDWEMATLGPRELDLGWMTYLHRFFEDIAASAGLDGMPDFLRLDDLAALYEELTGHTPRDLEYYTAYAALRQATIMLRIQERAIHFGQAVAPEDPDDMIMHRASLEAMLDGTYWEKIR", "not soluble"],
  ["MAHHHHHHMARIPPLVVCGPSGVGKGTLIKKVLSEFPSRFRFSISCTTRNKREKETNGVDYYFVDKDDFERKLKEGQFLEFDKYANNFYGTLKSEYDLAVGEGKICLFEMNINGVKQLKESKHIQDGIYIFVKPPSIDILLGRLKNRNTEKPEEINKRMQELTREMDEADKVGFNYFIVNDDLARTYAELREYLLGSYPQLRGG", "soluble"],
  ["MERGRSDMEMINNMANCLILLSKAHQNDTKSRVFACKTCNKEFPSFQALGGHRASHRRSAALEGHAPPSPKRVKPVKHECPICGAEFAVGQALGGHMRKHRGGSGGGGGRSLAPATAPVTMKKSGGGNGKRVLCLDLNLTPLENEDLKLELGRFIF", "soluble"],
  ["MSLKYGGIIMKEILVIAPTKGTYEKSIHIVKKNKYKTIDVVFGNLKEGIPLAEKSINHGTRIIISRGGTYNMLKATYNIPIVEIKVDAYDIIKSYKEVKNSNEPFGIIGFNNVIYGFDIIEEILNKKITMIEIEKEEEIYDAIEKYRKKGINTYIGDTTVAHIVKRLNCKGILIESREENILRAIQQAEQILEATKDEQKRRLQIEAMTDFVHDGIITVDKNFKITLFNKSAEKIFGIKKENALYHNVVDVIPNTVLPQVVETMEPQIGEIQNIGSTKIITNRVPIIVDGQIQGAVSTFQDSKEISSFEHTIRRSLLSKGLSAEGHHHHHH", "soluble"],
  ["MAEKSCSLTEFVGTAIGDTLGLVIANVDTALLDAMKLEKRYRSIGILGARTGAGPHIMAADEAVKATNTEVVSIELPRDTKGGAGHGSLIILGGNDVSDVKRGIEVALKELDRTFGDVYGNEAGHIELQYTARASYALEKAFGAPIGRACGIIVGAPASVGVLMADTALKSANVEVVAYSSPAHGTSFSNEAILVISGDSGAVRQAVTSAREIGKTVLATLGSEPKNDRPSYI", "not soluble"],
  ["GMSFENYFPLWNDLNTAQKKLISDNLITQHVKKGTIIHNGNMDCTGLLLVKSGQLRTYILSDEGREITLYRLFDMDMCLLSASCIMRSIQFEVTIEAEKDTDLWIIPAEIYKGIMKDSAPVANYTNELMATRFSDVMWLIEQIMWKSLDKRVASFLLEETSIEGTNELKITHETIANHLGSHREVITRMLRYFQVEGLVKLSRGKITILDSKRLETLQRS", "soluble"],
  ["MSLAIQLGKDYTMLSTPQPVADPKKVEVIEFFSYHCIHCYDDDPAFNAWSKTLPADVSFRKEQIVWQKSMEGFARMFATFNATGTFDKLHRAAFDAQIKQRVDLSKPEQFTGWIKQQKGVDSAKLLQTYNSFGINAQVARATKITRDYQIQGTPTVIVNGKYVVVTATPERMIQVMNELVAKAREGHHHHHH", "soluble"],
  ["MGSDKIHHHHHHMKLLEVKGLKKYFPLTKGFFKKVVGYVRAVDDVSFDIKQGETLALVGESGCGKTTTAKSILRAIDPTDGDVILHLDGKDVNIAKLSRDELKPYRRYMQMIFQNPYTSLNPRMKVKEIVGEPLLVNGIAKGKELEDRVAELLKAVGLRPEYMIRYPHAFSGGQRQRIVIARAIALRPKLVVCDEPTSALDVSIRAQILNLLMDLQEEFALTYLFITHDLSVVEHISDRVAVMYLGKIVELSSTEEIFENPKHPYTETLLRSVPKPDPDLREELVPIEGEVPNPANPPSGCYFHPRCPYAKSICKEEYPEFRNLGTEDNPHYVACHFAESLKLRGVKITL", "not soluble"],
  ["MQLVVARIGRAHGIKGEVTVEVRTDEPELRLGPGAVLATDPASTGPLTIESGRVHSGRLLLRFAGVHDRTGAEALRNTLLIADVDPDERPEDEDEYYDHQLIDLDVVTEDGTEVGRITEISHLPTQDLFVVERPDGSEVYVPFVSEIVTGIDLDAQRAVIDPPPGLIDDRAEIASARDAGAEDAGDEALEHHHHHH", "soluble"],
  ["MAHHHHHHMCSTNQKLACCSGDNVFDTKENENDSYPQMVNKQLPPKVLEPIVQNKIVEVPKEVYLEKIVEVPQIKTVERIVEQIRPVIKYKNVYKTKTVYVEKIKNVDRIIYQEKIVEVPQIKTVEKIVEVPVYVDRERIITAPRYMVVEKVIPVLKTTKKESVMEIPEVNCPNIDITQEVESKEEIQIEDLKENQTTSVVHEKDIQLLNDLNIQKMHSSATLNAEADQDTTADTIQNDNFCSTVSCKFLPMYDNFPKMQYSMCNGFPEREKRFSSINIYKSKEEGFPKIRISKTPQIIQRNCYCNYA", "not soluble"]
]}
